Origin of values: patent US12479841B2

The listing below reports pEC50 for compounds tested on Caenorhabditis elegans slo-1a (Caenorhabditis elegans).
Sequence (Q95V25 whole entry): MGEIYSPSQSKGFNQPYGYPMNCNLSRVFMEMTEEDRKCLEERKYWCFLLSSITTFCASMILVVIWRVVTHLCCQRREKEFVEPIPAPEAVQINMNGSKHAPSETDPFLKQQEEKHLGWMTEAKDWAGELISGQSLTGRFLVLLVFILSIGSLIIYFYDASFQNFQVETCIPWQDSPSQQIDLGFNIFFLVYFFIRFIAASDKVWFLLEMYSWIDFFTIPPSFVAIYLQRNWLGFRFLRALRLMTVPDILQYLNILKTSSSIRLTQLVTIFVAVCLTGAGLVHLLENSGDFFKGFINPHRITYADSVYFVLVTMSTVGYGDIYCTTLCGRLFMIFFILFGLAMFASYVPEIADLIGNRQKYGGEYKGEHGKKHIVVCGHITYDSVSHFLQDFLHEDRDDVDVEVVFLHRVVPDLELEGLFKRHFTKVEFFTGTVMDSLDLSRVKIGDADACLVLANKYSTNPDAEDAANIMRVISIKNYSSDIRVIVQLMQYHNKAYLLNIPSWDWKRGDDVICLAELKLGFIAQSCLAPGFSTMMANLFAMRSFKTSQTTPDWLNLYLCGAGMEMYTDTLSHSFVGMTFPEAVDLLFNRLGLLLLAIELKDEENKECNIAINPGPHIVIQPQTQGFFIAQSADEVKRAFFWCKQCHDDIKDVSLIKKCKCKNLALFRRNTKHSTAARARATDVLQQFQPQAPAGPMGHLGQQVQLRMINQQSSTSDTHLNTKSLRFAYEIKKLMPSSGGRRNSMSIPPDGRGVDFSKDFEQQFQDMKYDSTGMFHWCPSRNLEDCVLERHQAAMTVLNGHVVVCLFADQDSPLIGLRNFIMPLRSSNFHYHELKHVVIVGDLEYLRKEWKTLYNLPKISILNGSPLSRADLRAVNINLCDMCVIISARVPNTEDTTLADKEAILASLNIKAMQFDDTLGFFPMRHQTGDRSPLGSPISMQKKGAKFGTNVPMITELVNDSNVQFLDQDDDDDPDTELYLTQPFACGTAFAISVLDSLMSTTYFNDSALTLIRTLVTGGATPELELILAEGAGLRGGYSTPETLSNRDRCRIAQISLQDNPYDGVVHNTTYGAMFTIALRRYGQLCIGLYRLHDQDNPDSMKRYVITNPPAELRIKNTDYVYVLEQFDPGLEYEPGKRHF
pEC50: −log10 of the molar value.
ASSAY METRIC: pEC50

[
  {
    "COMPOUND": "CN(C)c1c(C(=O)NC2CC(C)(C)Oc3ccccc32)cnc2c1ccn2-c1cccc(Cl)c1Cl (stereo not shown)",
    "VALUE REPORTED": "> 5.00"
  },
  {
    "COMPOUND": "CN(C)c1c(C(=O)N[C@H]2CCc3ccccc32)cnc2c1ccn2-c1cccc(Cl)c1Cl",
    "VALUE REPORTED": "> 6.00"
  },
  {
    "COMPOUND": "CN(C)c1c(C(=O)NCc2ccccc2)cnc2c1ccn2-c1cccc(Cl)c1Cl",
    "VALUE REPORTED": "> 6.00"
  },
  {
    "COMPOUND": "CC1(C)CC(NC(=O)c2cnc3c(ccn3-c3cccc(Cl)c3Cl)c2N2CCOCC2)c2ccccc2O1 (stereo not shown)",
    "VALUE REPORTED": "> 5.00"
  },
  {
    "COMPOUND": "CN(C)c1c(C(=O)NC2CCc3ccccc32)cnc2c1ccn2-c1cc(Cl)cc(Cl)c1 (stereo not shown)",
    "VALUE REPORTED": "> 6.00"
  },
  {
    "COMPOUND": "CN(C)c1c(C(=O)N[C@@H]2CCOc3ccccc32)cnc2c1ccn2-c1cccc(Cl)c1Cl",
    "VALUE REPORTED": "> 5.00"
  },
  {
    "COMPOUND": "CN(C)c1c(C(=O)N[C@H]2CCOc3ccccc32)cnc2c1ccn2-c1cccc(F)c1F",
    "VALUE REPORTED": "> 6.00"
  },
  {
    "COMPOUND": "Cc1cccc(-n2ccc3c(N(C)C)c(C(=O)N[C@H]4CCOc5ccccc54)cnc32)c1C",
    "VALUE REPORTED": "> 6.00"
  },
  {
    "COMPOUND": "CN(C)c1c(C(=O)N[C@H]2CCOc3ccccc32)cnc2c1ccn2-c1cccc(Cl)c1Cl",
    "VALUE REPORTED": "> 6.00"
  },
  {
    "COMPOUND": "CN(C)c1c(C(=O)NC2CC(C)(C)Oc3ccccc32)cnc2c1ccn2-c1cc(Cl)cc(Cl)c1 (stereo not shown)",
    "VALUE REPORTED": "> 5.00"
  },
  {
    "COMPOUND": "O=C(N[C@H]1CCCc2ccccc21)c1cnc2c(ccn2-c2cccc(Cl)c2Cl)c1N1CCOCC1",
    "VALUE REPORTED": "> 6.00"
  },
  {
    "COMPOUND": "CN(C)c1c(C(=O)NC2CCOc3ccccc32)cnc2c1ccn2-c1cccc(Cl)c1Cl (stereo not shown)",
    "VALUE REPORTED": "> 6.00"
  },
  {
    "COMPOUND": "O=C(NC1CCOc2ccccc21)c1cnc2c(ccn2-c2cccc(Cl)c2Cl)c1N1CCOCC1 (stereo not shown)",
    "VALUE REPORTED": "> 6.00"
  },
  {
    "COMPOUND": "O=C(N[C@H]1CCOc2ccccc21)c1cnc2c(ccn2-c2cccc(Cl)c2Cl)c1N1CCOCC1",
    "VALUE REPORTED": "> 6.00"
  },
  {
    "COMPOUND": "CN(C)c1c(C(=O)N[C@H]2CCCc3ccccc32)cnc2c1ccn2-c1cc(Cl)cc(Cl)c1",
    "VALUE REPORTED": "> 5.00"
  },
  {
    "COMPOUND": "O=C(NC1CCc2ccccc21)c1cnc2c(ccn2-c2cccc(Cl)c2Cl)c1N1CCOCC1 (stereo not shown)",
    "VALUE REPORTED": "> 6.00"
  }
]

----------
This section presents molecules with their documented pEC50 values.
SYSTEM NAME: human Maxi K channel (BK channel), KCNMA1 (KCa1.1) and beta1 (KCNMB1) subunits (Homo sapiens)
Sequence (Q12791 1-1178 isoform Q12791-5): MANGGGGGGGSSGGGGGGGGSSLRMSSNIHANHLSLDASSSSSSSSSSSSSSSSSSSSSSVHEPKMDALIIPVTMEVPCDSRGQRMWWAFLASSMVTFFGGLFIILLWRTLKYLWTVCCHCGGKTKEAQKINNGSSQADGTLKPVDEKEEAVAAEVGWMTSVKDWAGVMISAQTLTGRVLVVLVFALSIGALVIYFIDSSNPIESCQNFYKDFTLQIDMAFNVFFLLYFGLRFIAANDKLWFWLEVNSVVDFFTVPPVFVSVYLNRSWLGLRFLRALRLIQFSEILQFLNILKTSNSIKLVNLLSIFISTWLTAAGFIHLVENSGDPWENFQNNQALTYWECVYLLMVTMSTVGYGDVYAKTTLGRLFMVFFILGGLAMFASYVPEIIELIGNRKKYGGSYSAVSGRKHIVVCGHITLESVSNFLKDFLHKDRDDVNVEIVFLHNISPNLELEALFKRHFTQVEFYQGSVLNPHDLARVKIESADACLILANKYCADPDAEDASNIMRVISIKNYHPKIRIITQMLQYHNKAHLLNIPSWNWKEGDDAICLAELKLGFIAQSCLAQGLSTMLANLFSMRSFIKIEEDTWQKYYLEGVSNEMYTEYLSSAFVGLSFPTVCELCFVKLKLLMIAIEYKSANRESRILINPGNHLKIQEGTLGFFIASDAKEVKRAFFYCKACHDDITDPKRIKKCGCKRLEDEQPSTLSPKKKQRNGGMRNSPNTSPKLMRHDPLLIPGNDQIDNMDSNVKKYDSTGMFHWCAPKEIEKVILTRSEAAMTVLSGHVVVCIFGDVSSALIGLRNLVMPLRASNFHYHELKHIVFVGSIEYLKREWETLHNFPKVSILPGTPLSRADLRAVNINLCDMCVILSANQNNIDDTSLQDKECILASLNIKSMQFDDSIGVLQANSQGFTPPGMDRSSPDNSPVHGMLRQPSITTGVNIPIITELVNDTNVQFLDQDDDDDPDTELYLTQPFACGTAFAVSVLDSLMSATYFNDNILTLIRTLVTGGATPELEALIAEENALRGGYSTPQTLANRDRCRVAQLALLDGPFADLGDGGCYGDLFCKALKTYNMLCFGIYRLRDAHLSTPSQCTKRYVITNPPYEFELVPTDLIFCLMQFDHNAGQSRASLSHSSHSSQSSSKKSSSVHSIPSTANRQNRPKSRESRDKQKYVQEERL
Sequence (Q16558 whole entry partner): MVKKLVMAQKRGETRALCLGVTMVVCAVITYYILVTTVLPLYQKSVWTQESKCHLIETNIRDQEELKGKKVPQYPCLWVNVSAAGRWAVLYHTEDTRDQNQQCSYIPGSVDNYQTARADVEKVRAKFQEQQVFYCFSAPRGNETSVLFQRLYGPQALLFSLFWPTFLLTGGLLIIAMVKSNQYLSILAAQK
pEC50: −log10 of the molar value.

[
  {
    "MOLECULE": "CN(C)c1c(C(=O)N[C@H]2CCOc3ccccc32)cnc2c1ccn2-c1cccc(Cl)c1Cl",
    "pEC50": "< 4.52"
  },
  {
    "MOLECULE": "Cc1cccc(-n2ccc3c(N(C)C)c(C(=O)N[C@H]4CCOc5ccccc54)cnc32)c1C",
    "pEC50": "< 4.52"
  },
  {
    "MOLECULE": "CN(C)c1c(C(=O)N[C@H]2CCOc3ccccc32)cnc2c1ccn2-c1cc(Cl)cc(Cl)c1",
    "pEC50": "< 4.52"
  },
  {
    "MOLECULE": "CCOc1c(C(=O)N[C@H]2CCc3ccccc32)cnc2c1ccn2-c1cc(Cl)cc(Cl)c1",
    "pEC50": "< 4.52"
  },
  {
    "MOLECULE": "COc1c(C(=O)N[C@H]2CCOc3ccccc32)cnc2c1ccn2-c1cc(Cl)cc(Cl)c1",
    "pEC50": "< 4.52"
  },
  {
    "MOLECULE": "O=C(N[C@H]1CCCc2ccccc21)c1cnc2c(ccn2-c2cc(Cl)cc(Cl)c2)c1N1CCOCC1",
    "pEC50": "< 4.52"
  },
  {
    "MOLECULE": "O=C(NC1CCOc2ccccc21)c1cnc2c(ccn2-c2cc(Cl)cc(Cl)c2)c1N1CCOCC1 (centres unmarked)",
    "pEC50": "< 4.52"
  },
  {
    "MOLECULE": "CN(C)c1c(C(=O)NC2CCOc3ccccc32)cnc2c1ccn2-c1cc(Cl)cc(Cl)c1 (centres unmarked)",
    "pEC50": "< 4.52"
  }
]

----------
Tested on: larvae L4 of D. immitis
PROCEDURE DETAILS: In vitro assay: Dirofilaria immitis L4 motility
Assay type: cell-based
PARTICULARS: 72 h, read-out: EC50 value, Dirofilaria immitis L4, 10 L4 larvae, 3 days incubation, reduction in motility vs DMSO, duplicates
ASSAY METRIC: EC50

[
  {
    "COMPOUND": "O=C(NC1CCOc2ccccc21)c1cnc2c(ccn2-c2cccc(Cl)c2Cl)c1N1CCOCC1 (stereo not shown)",
    "SYSTEM NAME": "larvae L4 of D. immitis",
    "VALUE REPORTED": "< 1000 nM"
  }
]
